- assay system: 5-hydroxytryptamine receptor 1B (Rattus norvegicus)
- procedure details: Binding affinity to 5-HT1B receptors using rat cortex+striatum + globus pallidus,[3H]-5-OH-tryptamine, and serotonin for NSB
metric: IC50 (µM)
Numeric only. Scale: µM

For orientation, consider the following solved cases.
COc1cccc2c1CC1(CCCN1CCCCN1C(=O)CC3(CCCC3)CC1=O)CO2 (single isomer, unassigned; (-)); 31.1
COc1cccc2c1CC1(CCCN1)CO2 (stereo not given); 4.4
COc1cccc2c1CC1(CCCN1CCCCN1C(=O)CC3(CCCC3)CC1=O)CO2 (single isomer, unassigned; (+)); 1.3

Ask: # lookup: IC50 of CCCN1CCCC12COc1cccc(OC)c1C2 (stereo not given)
Result: 11

Ask: Return reported IC50; argument: O=C1CC2(CCCC2)CC(=O)N1CCCCN1CCCC12COc1ccccc1C2 (stereo not given)
Result: 3.8

Ask: I would be grateful if you could share the reported IC50 for COc1cccc2c1CC1(CCCCN1CCCCN1C(=O)CC3(CCCC3)CC1=O)CO2 (stereo not given) .
Result: 2.21

---

- assay system: 5-hydroxytryptamine receptor 1A (Rattus norvegicus, UniProt P19327)
- Sequence (P19327 whole entry): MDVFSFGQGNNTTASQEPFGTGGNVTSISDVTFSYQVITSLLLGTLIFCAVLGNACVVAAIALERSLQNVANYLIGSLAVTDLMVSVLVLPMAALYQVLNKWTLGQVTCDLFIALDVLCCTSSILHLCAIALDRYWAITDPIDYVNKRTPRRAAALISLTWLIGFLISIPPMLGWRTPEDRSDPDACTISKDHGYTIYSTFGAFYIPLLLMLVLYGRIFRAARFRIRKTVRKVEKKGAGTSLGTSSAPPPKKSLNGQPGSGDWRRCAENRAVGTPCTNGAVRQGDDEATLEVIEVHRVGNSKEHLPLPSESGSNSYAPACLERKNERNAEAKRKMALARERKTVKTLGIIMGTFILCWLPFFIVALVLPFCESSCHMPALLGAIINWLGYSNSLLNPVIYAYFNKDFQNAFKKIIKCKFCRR
- procedure details: Binding affinity to 5-hydroxytryptamine 1A receptor in rat hippocampus membranes,3H-8-OH-DPAT and buspirone for nonspecific binding (NSB)
- Assay type: cell membranes
IC50 values by entry
Write the number in nM without appending the unit.

Consider the reported IC50 for these molecules:
CCCN1CCCCC12COc1cccc(OC)c1C2 (stereo unspecified); 420
CCCN1C(=O)CCC12COc1cccc(OC)c1C2 (stereo unspecified); 14200
COc1cccc2c1CC1(CCCCN1CCCCNS(=O)(=O)c1ccc(C)cc1)CO2 (stereo unspecified); 68
COc1cccc2c1CC1(CCCN1CCCCN1C(=O)CC3(CCCC3)CC1=O)CO2 (stereo in doubt; 11a); 10.6
CCCN1CCCC12COc1ccccc1C2 (stereo unspecified); 1300

Ask: Look up IC50 with 5-hydroxytryptamine receptor 1A (Rattus norvegicus, UniProt P19327) for this molecule: COc1cccc2c1CC1(CCCN1CCCCN1C(=O)CC3(CCCC3)CC1=O)CO2 (single isomer, unassigned; (+))
Result: 6.72

Ask: Item COc1cccc2c1CC1(CCC(=O)N1)CO2 (stereo unspecified) with 5-hydroxytryptamine receptor 1A (Rattus norvegicus, UniProt P19327) - IC50?
Result: 4370

Ask: Tell me reported IC50 for COc1cccc2c1CC1(CCCCN1CCCCN1C(=O)CC3(CCCC3)CC1=O)CO2 (stereo unspecified) , tested with 5-hydroxytryptamine receptor 1A (Rattus norvegicus, UniProt P19327).
Result: 8.81

Ask: IC50 of COc1cccc2c1CC1(CCCCN1CCCCNC(=O)c1ccc(F)cc1)CO2 (stereo unspecified) on 5-hydroxytryptamine receptor 1A (Rattus norvegicus, UniProt P19327)?
Result: 62.8

Ask: Give IC50 (5-hydroxytryptamine receptor 1A (Rattus norvegicus, UniProt P19327)) of the following molecule: COc1cccc2c1CC1(CCCN1)CO2 (stereo unspecified)
Result: 298

Ask: Give 5-hydroxytryptamine receptor 1A (Rattus norvegicus, UniProt P19327) IC50 for COc1cccc2c1CC1(CCCN1C(C)=O)CO2 (stereo unspecified)
Result: 81400

---

- assay system: 5-hydroxytryptamine receptor 1A (Rattus norvegicus, UniProt P19327)
- procedure details: Compound was evaluated for binding affinity on 5-hydroxytryptamine 1A receptor in rat hippocampus membranes,3H-8-OH-DPAT and buspirone for nonspecific binding
- Assay type: cell membranes
metric: pIC50
Worth noting: pIC50 values are minus log10 of concentrations stated in mol/L.

Ask: Form field - read-out: pIC50; system: 5-hydroxytryptamine receptor 1A (Rattus norvegicus, UniProt P19327); submitted item: CCCN1CCCC12COc1cccc(O)c1C2 (stereo unspecified)
Result: 7.41

---

- assay system: 5-hydroxytryptamine receptor 1B (Rattus norvegicus)
- procedure details: Binding affinity to 5-HT1B receptors using rat cortex+striatum + globus pallidus,[3H]-5-OH-tryptamine, and serotonin for NSB
The entries below come with measured pIC50 values attached.
Keep in mind that pIC50 stands for -log10 of concentration in molar terms.

Sample answers from the record:
CCCN1CCCC12COc1cccc(OCCCCN3C(=O)CC4(CCCC4)CC3=O)c1C2 (stereo not given); 5.57
COc1cccc2c1CC1(CCCN1CCCCN1C(=O)CC3(CCCC3)CC1=O)CO2 (stereo in doubt; 11a); 5.42
COc1cccc2c1CC1(CCCN1C(C)=O)CO2 (stereo not given); 3.61
CCCN1CCCCC12COc1cccc(OC)c1C2 (stereo not given); 4.16

Ask: Find the measured pIC50: item COc1cccc2c1CC1(CCCCN1CCCCNS(=O)(=O)c1ccc(C)cc1)CO2 (stereo not given) , target or system 5-hydroxytryptamine receptor 1B (Rattus norvegicus).
Result: 4.29

---

- procedure details: Displacement of [3H]raclopride from Dopamine receptor […] of calf striatum
- Design: species or system Bos taurus
pIC50: −log10 of the molar value.
Label not satisfied if pIC50 falls below 4; label satisfied in every other case.

Use these answered entries as a reference point.
CCCN1CCCC12COc1cccc(O)c1C2 (centres undefined); not satisfied
O=C1CC2(CCCC2)CC(=O)N1CCCCN1CCN(c2ncccn2)CC1; not satisfied
COc1cccc2c1CC1(CCCCN1CCCCN1C(=O)CC3(CCCC3)CC1=O)CO2 (centres undefined); satisfied
COc1cccc2c1CC1(CCCN1CCCCN1C(=O)CC3(CCCC3)CC1=O)CO2 (single isomer, unassigned; (-)); satisfied
COc1cccc2c1CC1(CCCCN1CCCCNS(=O)(=O)c1ccc(C)cc1)CO2 (centres undefined); satisfied

Ask: Test whether the molecule COc1cccc2c1CC1(CCCN1CCCCN1C(=O)CC3(CCCC3)CC1=O)CO2 (single isomer, unassigned; (+)) records pIC50 of 4 or higher.
Result: satisfied

Ask: Identify whether the reported pIC50 of the following molecule is 4 or greater: COc1cccc2c1CC1(CCCCN1CCCCNC(=O)c1ccc(F)cc1)CO2 (centres undefined)
Result: satisfied

---

- assay system: 5-hydroxytryptamine receptor 1A (Rattus norvegicus)
- procedure details: Binding affinity to 5-hydroxytryptamine 1A receptor in rat hippocampus membranes,3H-8-OH-DPAT and buspirone for nonspecific binding (NSB)
- Type: cell membranes
Below, each entry is listed alongside its reported pIC50.
Just the number, please; pIC50 means minus log10 of the concentration in mol/L.

Field: example entries. Status: answers known.
CCCN1CCCC12COc1cccc(OCCCCN3C(=O)CC4(CCCC4)CC3=O)c1C2 (stereo not drawn); 7.00
CCCN1CCCC12COc1cccc(OC)c1C2 (stereo not drawn); 7.13

Proceed to the following item.
Ask: Quick check: pIC50 of O=C1CC2(CCCC2)CC(=O)N1CCCCN1CCCC12COc1ccccc1C2 (stereo not drawn) ?
Result: 6.75

---

- assay system: 5-hydroxytryptamine receptor 1B (Rattus norvegicus, UniProt P28564)
- Sequence (P28564 whole entry): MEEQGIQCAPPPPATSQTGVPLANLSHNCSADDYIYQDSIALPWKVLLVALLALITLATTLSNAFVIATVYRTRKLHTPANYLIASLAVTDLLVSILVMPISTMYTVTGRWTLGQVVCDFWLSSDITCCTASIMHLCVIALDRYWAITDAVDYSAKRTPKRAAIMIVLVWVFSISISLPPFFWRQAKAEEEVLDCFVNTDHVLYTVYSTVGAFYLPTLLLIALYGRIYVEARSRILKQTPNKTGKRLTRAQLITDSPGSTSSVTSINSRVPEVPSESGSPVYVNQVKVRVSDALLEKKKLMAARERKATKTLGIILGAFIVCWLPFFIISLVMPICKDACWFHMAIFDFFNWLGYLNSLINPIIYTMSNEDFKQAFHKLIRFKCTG
- procedure details: Compound was evaluated for binding affinity on 5-HT1B receptors using rat cortex+striatum+ globus pallidus,[ 3H]-5-OH-tryptamine, and serotonin for NSB.
- Assay type: tissue-based
metric: pIC50
In simple prose, pIC50 is minus the logarithm base ten of a concentration in moles per litre.

Ask: Please look up its pIC50: COc1cccc2c1CC1(CCCCN1CCCCNC(=O)c1ccc(F)cc1)CO2 (stereo unspecified)
Result: 4.95

---

- assay system: Serotonin 3 receptor (5HT3) (Mus musculus, UniProt Q9JHJ5+P23979)
- procedure details: Displacement of [3H]-BRC 36694 from 5-hydroxytryptamine 3 receptor in NG108-15 cells
- Assay type: cell-based
metric: IC50 (µM)
Expressed in µM, but write only the number.

Ask: Look at this compound and give its reported IC50. COc1cccc2c1CC1(CCCCN1CCCCNC(=O)c1ccc(F)cc1)CO2 (stereo unspecified)
Result: 66.5

---

- procedure details: Binding affinity to 5-hydroxytryptamine 2 receptor using calf frontal cortex, [3H]- ketanserin, and spiperone for NSB
- Parameters: species or system Bos taurus
Entries whose IC50 is below 10 µM take satisfied; entries at or above 10 µM take not satisfied.

Ask: Answer whether the molecule CCCN1CCCC12COc1cccc(OC)c1C2 (stereo not given) has IC50 strictly less than 10 µM
Result: not satisfied

Ask: I wonder whether CCCN1CCCC12COc1ccccc1C2 (stereo not given) has IC50 below 10 µM. Can you tell?
Result: not satisfied

Ask: IC50 under 10 µM? Item: CCCN(CCCCN1C(=O)CC2(CCCC2)CC1=O)C1COc2cccc(OC)c2C1 (single isomer, unassigned; (-))
Result: satisfied

Ask: Problem: For the molecule O=C1c2ccccc2S(=O)(=O)N1CCCCN1CCN(c2ncccn2)CC1 , is IC50 under 10 µM?
Result: satisfied

Ask: Decide: IC50 of COc1cccc2c1CC1(CCCN1CCCCN1C(=O)CC3(CCCC3)CC1=O)CO2 (single isomer, unassigned; (-)) strictly below 10 µM?
Result: not satisfied
